Field pIC50: reported value for MAGL (Homo sapiens, UniProt Q99685); entries drawn from several documents.
pIC50: −log10 of the molar value.
OBSERVATION TYPE: pIC50

Some entries whose results are on file:
molecule_smiles=O=C1N[C@H](CCC(=O)N2CC3(CC(n4cnc(C5CC5)n4)C3)C2)CO1 target_desc="MAGL (Homo sapiens, UniProt Q99685)" observation_type=pIC50 readout_value=6.33
molecule_smiles=O=C1CO[C@H]2CCN(C(=O)N3CC(O)(C#Cc4ccccc4Cl)C3)C[C@H]2N1 target_desc="MAGL (Homo sapiens, UniProt Q99685)" observation_type=pIC50 readout_value=6.27
molecule_smiles=Cc1cc(C(=O)N2CCN(c3nc4nc(Cl)ccc4o3)CC2)cnc1OCC1(CC#N)CC1 target_desc="MAGL (Homo sapiens, UniProt Q99685)" observation_type=pIC50 readout_value=6.64
molecule_smiles=Cc1cc(C(=O)N2CCN(c3nc4nc(Cl)ccc4o3)CC2)cnc1OCC1(C)COC1 target_desc="MAGL (Homo sapiens, UniProt Q99685)" observation_type=pIC50 readout_value=6.50

(I) CC(C)(C)c1ccc(C2CN(C(=O)CC[C@@H]3COC(=O)N3)C2)cn1
(II) Cc1ccc2oc(N3CCN(C(=O)c4cc(F)c(-c5nnn(CC(C)(C)C)n5)c(F)c4)CC3)nc2n1
Which gives the smaller pIC50 number: I or II ? Reply with the label of the item you choose. I
(I: 6.45, II: 7.51)

* * *

Field IC50: reported value for MAGL (Homo sapiens, UniProt Q99685); entries drawn from several documents.
OBSERVATION TYPE: IC50 (nM)

# example entries with known answers
molecule=Cn1c(-c2ccc(C(=O)N3CCN(c4nc5nc(Cl)ccc5o4)CC3)cc2)nnc1C(C)(C)C target_desc="MAGL (Homo sapiens, UniProt Q99685)" unit_text=nM readout_value=1310
molecule=O=C1CO[C@H]2CCN(C(=O)N3CC(COc4cc(C(F)(F)F)cc(F)n4)C3)C[C@H]2N1 target_desc="MAGL (Homo sapiens, UniProt Q99685)" unit_text=nM readout_value=143
molecule="O=C(N1CC(OCc2ccc(C(F)(F)F)cc2F)C1)N1C[C@@H]2CCc3nn[nH]c3[C@@H]2C1 (single isomer, unassigned)" target_desc="MAGL (Homo sapiens, UniProt Q99685)" unit_text=nM readout_value=50
molecule=Cc1c(C(=O)N2CC(N3CCN(C(=O)c4ccc[nH]4)CC3)C2)n(C)c2ccc(Cl)cc12 target_desc="MAGL (Homo sapiens, UniProt Q99685)" unit_text=nM readout_value=240
molecule=CC(C)(C)Cn1cc(-c2c(F)cc(C(=O)N3CCN(c4nc5nc(Cl)ccc5o4)CC3)cc2F)nn1 target_desc="MAGL (Homo sapiens, UniProt Q99685)" unit_text=nM readout_value=7

(a) O=C(c1cccc(-c2c[nH]ncc2=O)c1Cl)N1CCN2C[C@@H](c3ccc(F)c(Cl)c3)OC[C@@H]2C1
(b) O=C(c1cccc(N2CC[C@@H](O)C2)c1Cl)N1CCN2C[C@@](O)(c3ccc(F)c(Cl)c3)CC[C@@H]2C1
(c) O=C(c1ccc2c(ccn2-c2ccc(F)cc2)c1)N1CC(N2CCN(C(=O)c3cnco3)CC2)C1
(d) Cn1cc(I)c2ccc(C(=O)N3CC(N4CCN(C(=O)c5nccs5)CC4)C3)cc21
(e) CS(=O)(=O)c1ccc(-c2ccc(C3CN(C(=O)N4CC[C@@H]5OCC(=O)N[C@@H]5C4)C3)cc2)c(Cl)c1
In this exercise, place the 5 molecules in ascending sequence of their recorded IC50. Write out the labels following the order that was asked for. e, b, c, d, a

(A) O=C(c1sc2cc(C(F)(F)F)ccc2c1Cl)N1CC(N2CCC(=O)N(c3ncccn3)CC2)C1
(B) O=C(c1ccc(-n2cnc3ccccc32)cc1)N1CC(N2CCN(C(=O)c3nccs3)CC2)C1
Returns the identifier with the smallest measured IC50 among A and B . Response format: the label of the selected entry. A
(A: 55.4 nM, B: 267 nM)

* * *

Literature compilation of IC50 measurements on MAGL (Homo sapiens, UniProt Q99685).
Sequence (Q99685 whole entry, species assumed): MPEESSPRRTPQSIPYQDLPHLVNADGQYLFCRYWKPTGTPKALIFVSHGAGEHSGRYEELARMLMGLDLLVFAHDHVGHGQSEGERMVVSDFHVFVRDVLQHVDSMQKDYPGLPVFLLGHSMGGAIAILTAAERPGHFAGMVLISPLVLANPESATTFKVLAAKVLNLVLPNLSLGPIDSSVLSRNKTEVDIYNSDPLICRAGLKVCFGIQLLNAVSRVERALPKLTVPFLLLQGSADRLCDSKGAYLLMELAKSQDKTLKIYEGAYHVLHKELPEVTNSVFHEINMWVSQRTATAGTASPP
OBSERVATION TYPE: IC50 (µM)

molecule_smiles=O=C(c1ccc(Oc2ccccn2)c(Cl)c1)N1CC(N2CCN(C(=O)c3nccs3)CC2)C1 unit_text=µM readout_value=0.421
molecule_smiles=O=C(c1ccc2c(ccn2-c2ccc(C(F)(F)F)cc2)c1)N1CCN(C2CN(C(=O)c3ccc[nH]3)C2)CC1 unit_text=µM readout_value=0.018
molecule_smiles=O=C1CO[C@H]2CCN(C(=O)N3CC(c4ccc(OC5CC(F)(F)C5)cc4)C3)C[C@H]2N1 unit_text=µM readout_value=0.0041

(A) O=C1COC2=C(CN(C(=O)N3CCC(Cc4ccc(C(F)(F)F)cc4)CC3)CC2)N1
(B) O=C(c1ccc(Oc2ncc(C(F)(F)F)cc2Cl)cc1)N1CC(N2CCN(C(=O)C(F)(F)F)CC2)C1
I would appreciate it if you could say which entry, A or B , has the lower IC50 value. # reply format: chosen label A
(A: 0.0518 µM, B: 1.72 µM)

* * *

pIC50 for MAGL (Homo sapiens, UniProt Q99685), merged from several publications.
pIC50: −log10 of the molar value.
OBSERVATION TYPE: pIC50

A selection of reference data follows.
molecule=Cc1c(C(=O)N2CC(N3CCN(C(=O)c4ccc[nH]4)CC3)C2)nc2ccc(Br)cn12 readout_value=5.50
molecule=COc1ccc(CCC2CN(C(=O)N3CC[C@@H]4OCC(=O)N[C@@H]4C3)C2)c(C(F)(F)F)c1 readout_value=8.22

(P) O=C1N[C@H](CCC(=O)N2CC3(CCC(Cc4ccc(C(F)(F)F)nc4)C3)C2)CO1 (single isomer, unassigned)
(Q) Cc1nc2cc(C(=O)N3CC(N4CCN(C(=O)c5nccs5)CC4)C3)ccc2n1-c1ccc(F)cc1
Field: lower recorded pIC50 (choose P or Q ) Reply with the label of the item you choose. Q

* * *

The following compounds were reported with pIC50 values on MAGL (Homo sapiens, UniProt Q99685) in different studies.
pIC50: −log10 of the molar value.
OBSERVATION TYPE: pIC50

(1) O=C1CO[C@H]2CCN(C(=O)N3CCC(c4ccccc4)CC3)C[C@H]2N1
(2) O=C1CO[C@H]2CCN(C(=O)N3CC(c4ccc(Oc5cccc(C(F)(F)F)c5)cc4)C3)C[C@H]2N1
(3) O=C(c1cccc(-c2cc[nH]c(=O)c2)c1Cl)N1CCN2C[C@@H](c3ccc(F)c(Cl)c3)OC[C@@H]2C1
(4) COc1cccc(C(=O)N2CCN3C[C@@](O)(c4cc(F)c(F)cc4F)OC[C@@H]3C2)c1Cl
Kindly sort the 4 compounds above from the smallest to the largest pIC50. In your reply, arrange the labels in the requested order. 1, 4, 3, 2

* * *

pIC50: −log10 of the molar value.
Compiled record: pIC50 values for MAGL (Homo sapiens) across several sources.
OBSERVATION TYPE: pIC50

molecule_smiles=Cc1cc(C(=O)N2CCN(c3nc4nc(Cl)ccc4o3)CC2)cnc1-c1cnn(CC(C)(C)C)n1 readout_value=8.05
molecule_smiles=O=C(c1csnn1)N1CC(N2CCN(C(=O)c3cc4cc(C(F)(F)F)ccc4s3)CC2)C1 readout_value=6.36
molecule_smiles=O=C(c1nccs1)N1CCN(C2CN(C(=O)c3sc4cc(-c5ccccc5)ccc4c3C(F)(F)F)C2)CC1 readout_value=7.96
molecule_smiles=O=C(c1cccc(N2CCNC2=O)c1Cl)N1CCN2C[C@@](O)(c3ccc(Cl)cc3)CC[C@@H]2C1 readout_value=5.67

(a) O=C(c1cscn1)N1CCN(C2CN(C(=O)c3cccc4[nH]c(-c5ccc(Cl)cc5)nc34)C2)CC1
(b) O=C(c1cscn1)N1CC(C2CCN(C(=O)c3ccc(-c4ccccc4)cc3F)CC2)C1
Could you tell me which of a and b has the lower pIC50 reading? Field: selected label. Fill in the label of the entry you choose. a

* * *

From various publications: IC50 for MAGL (Homo sapiens, UniProt Q99685).
OBSERVATION TYPE: IC50 (nM)

Illustrative cases are given below, each with its answer.
compound="O=C1CO[C@@H]2CCN(C(=O)N3CC(c4ccc(OC(F)(F)F)c(Cl)c4)C3)C[C@H]2N1 (single isomer, unassigned)" unit_text=nM readout_value=424
compound="O=C(c1ccc(-c2ccccc2)cc1)N1CC(N2CCN(C(=O)c3nccs3)CC2C(F)(F)F)C1 (centres unmarked)" unit_text=nM readout_value=8150
compound="O=C1CO[C@H]2CCN(C(=O)N3CC(c4ccc(N5CCCC5C(F)(F)F)cn4)C3)C[C@H]2N1 (some centres unmarked)" unit_text=nM readout_value=6
compound=O=C(c1ccc2c(c1)C(Cc1cccc(C(F)(F)F)c1)(Cc1cccc(C(F)(F)F)c1)C(=O)N2Cc1cccc(C(F)(F)F)c1)N1CC(N2CCN(C(=O)c3nccs3)CC2)C1 unit_text=nM readout_value=9890

(A) Cc1cc(C(=O)N2CCN(c3nc4nc(Cl)ccc4o3)CC2)cnc1-n1cc(C(C)(C)C)cn1
(B) Cc1cc(C(=O)N2CCN(c3nc4nc(Cl)ccc4o3)CC2)ccc1-c1nnn(CC(C)(C)C)n1
(C) Cn1cc(-c2cccc(C(F)(F)F)c2)c2ccc(C(=O)N3CC(N[C@H]4CCN(C(=O)c5ccccc5)C4)C3)cc21
(D) O=C1CO[C@H]2CCN(C(=O)N3CC(OCc4ccc(Cl)cc4Cl)C3)C[C@H]2N1
Sort ascending by IC50. Respond with the label ranking, as requested. B, A, D, C
